Tested on: M14 melanoma
runDescription: NCI tumour cell line growth inhibition, 48 h
quantityName: TGI

Determine from records and report TGI for CCN1C(=O)N(CC)C2C1NN=c1s/c(=C\c3cccc([N+](=O)[O-])c3)c(=O)n12 (stereo unspecified)
> 100 µM

Tell us which TGI value is on record for O=C(c1ccccc1)c1nn(-c2ccccc2)c2nc3nc(-c4ccccc4)cc(=O)n3nc12
81.4 µM

Given O=[N+]([O-])c1ccc(COc2cccc3cccnc23)cc1 , respond with its TGI.
29 µM

Name the recorded TGI of the item CC(=O)c1cccc(NC(=O)c2ccc(NC3=C(Cl)C(=O)N(Cc4ccccc4)C3=O)cc2)c1 in your answer.
33.3 µM

Answer with the recorded TGI for the compound listed here: CCN(CC)c1ccc(/C=C/C=C(/C#N)C(N)=S)cc1
9.33 µM

Report TGI, nothing else, for this compound: COc1ccc(C#CC2=C(c3cc(OC)c(OC)c(OC)c3)C(=O)OC2)cc1
> 50 µM

Indicate its recorded TGI; the compound in question is Cc1nn(-c2ccccc2)c2nc3ccc(Cl)cc3c(-c3ccccc3)c12
> 100 µM

Output measured TGI for this item: O=c1[nH]c(=O)n2n1C1C=CC2CC1
> 100 µM

In one line, give reported TGI of the entry CC1=C/C(=C2/N=C(N(C)C)SS2)C(C)=N1 .
> 100 µM

Recall and state the measured TGI for O=C1CCCC2=C1CC1=C(CCCC1=O)N2c1cccc([N+](=O)[O-])c1 .
> 100 µM

Tell me its TGI given Cc1cc(NS(=O)(=O)c2ccc(NC(=O)COC(=O)c3cccc4c(=O)c5ccccc5[nH]c34)cc2)no1 as the entry.
> 100 µM

Please supply the value of reported TGI for the item N#C/C(=C\c1cccc2cnccc12)N1N=NC2C=CC=CC21 (stereo unspecified)
> 100 µM

In one line, give reported TGI of the entry COc1cccc(C=C2N=C(C)N(n3c(-c4ccccc4)nc4ccccc4c3=O)C2=O)c1 .
> 100 µM

Please give measured TGI of the following entry: Nc1nc(-c2cc(-c3cccc4ccccc34)nc(N)n2)cc(-c2cccc3ccccc23)n1
> 100 µM

Let me know recorded TGI for CCN(CC)CC(=O)Nc1ccc2c(c1)C(=O)c1ccc(NC(=O)CN(CC)CC)cc1C2=O , thanks.
36.8 µM

Assign TGI to the following record: COc1cc2c(cc1OC)[C@@H]([C@H](O)c1ccccc1)NCC2
> 100 µM

Write down TGI measured for item Cc1c(-c2ccc(O)c(O)c2)oc(=O)c2c(O)cccc12
20.7 µM

Identify measured TGI associated with NC(=O)SCC(=O)Nc1ccc2ncccc2c1
> 100 µM

Could you please provide reported TGI for COC[C@@H](N=CN1CCc2cc(OC)c(OC)cc2C1)C(C)(C)C ? Thanks!
> 100 µM

Fill in TGI for record CN(C)Cc1cc(C(=O)/C=C/c2ccc(F)cc2)cc(CN(C)C)c1O
27.4 µM

Check the records and state TGI for NC(C(=O)OC(=O)c1ccccc1)C(=O)OC(=O)c1ccccc1
> 100 µM
